Where do these numbers come from? They come from patent US20240148821A1.

Give measured pIC50 for each item. Keep answers brief.
Molecular target: protein-protein interaction between Kras and SOS1 (biotin-tagged human Kras loaded with GDP, His-tagged human SOS1) (Homo sapiens (Human), UniProt P01116, G12D)
Assay: Protein-protein interaction inhibition between Kras and SOS1 (KrasG12D-SOS PPI) using AlphaScreen;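 also: kras produced in E. coli, Ni-coupled donor beads and streptavidin acceptor beads, excitation 680 nm with emission detected at 520–620 nm via singlet oxygen transfer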
Type: biochemical
Conditions: AlphaScreen; biotin-tagged human Kras loaded with GDP, His-tagged human SOS1; read-out: KRAS G12D-SOS PPI IC50
Numbered stars: 1 amine (or outer) side, 2 acyl side, 3 side chain; on linkers, the order of the positions; unused ones are H or OH. Bridge positions count the residues as written; N and C are the ends. Square brackets hold non-standard residues; d marks the D form. Peptide text beside a SMILES is read from it. * marks the point of attachment. hPhe(3,5-F2-4-CF3) = N[C@@H](CCc1cc(F)c(C(F)(F)F)c(F)c1)C(=O)O; hPhe(3-Cl-4-CF3) = N[C@@H](CCc1ccc(C(F)(F)F)c(Cl)c1)C(=O)O; hPhe(3-F,4-CF3) = N[C@@H](CCc1ccc(C(F)(F)F)c(F)c1)C(=O)O; X21 = O=C([C@H](CCc1ccc(OC(F)(F)F)c(F)c1)N[*:1])[*:2]; hPhe(4-CF3) = N[C@@H](CCc1ccc(C(F)(F)F)cc1)C(=O)O; NEtPhe(4-Me) = CCN[C@@H](Cc1ccc(C)cc1)C(=O)O; NMePhe(4-Cl) = CN[C@@H](Cc1ccc(Cl)cc1)C(=O)O; X99 = O=C([C@H](CCc1ccc(F)cc1F)N[*:1])[*:2]; NMedβ3hAla = C[C@H](CC(=O)[*:2])N(C)[*:1]; NMeGly(cPent) = CN[C@H](C(=O)O)C1CCCC1; NMeCha = CN[C@@H](CC1CCCCC1)C(=O)O; NMeF = CN[C@@H](Cc1ccccc1)C(=O)O; NMeI = CC[C@H](C)[C@H](NC)C(=O)O; NMeD = CN[C@@H](CC(=O)O)C(=O)O; NMeL = CN[C@@H](CC(C)C)C(=O)O; NMeV = CN[C@H](C(=O)O)C(C)C; d(β3hA) = C[C@@H](N)CC(=O)O; NMeC = CN[C@@H](CS)C(=O)O; NMeS = CN[C@@H](CO)C(=O)O; Morpholide = C1CN(*)CCO1; NMeA = CN[C@@H](C)C(=O)O; NMeAib = CNC(C)(C)C(=O)O; Piperidide = C1CCN(*)CC1; dNMeA = CN[C@H](C)C(=O)O; Ac5c = NC1(C(=O)O)CCCC1; Aze = O=C(O)[C@@H]1CCN1; Aib = CC(C)(N)C(=O)O; Cyclopropyl = C1CC1*; Sar = CNCC(=O)O; Propyl = CCC*
API: returns pIC50 as number; meaning -log10 of concentration in mol/L.

Prompt line: Which pIC50 is reported for this compound? CC[C@H](C)[C@@H]1NC(=O)[C@H](CC(C)C)N(C)C(=O)C[C@@H](C(=O)N2CCOCC2)N(C)C(=O)[C@H]([C@@H](C)CC)N(C)C(=O)C2(CCCC2)NC(=O)[C@@H]2CCCN2C(=O)[C@H](CCc2cc(F)c(C(F)(F)F)c(F)c2)NC(=O)CN(C)C(=O)[C@H](Cc2ccc(C)cc2)N(CC)C(=O)[C@@H]2CCN2C(=O)[C@H](C)N(C)C1=O [Compound 1209] ([NMeL]I[NMeA][Aze][NEtPhe(4-Me)][Sar][hPhe(3,5-F2-4-CF3)]P[Ac5c][NMeI][NMeD]-Morpholide; lactam N-11)
Response line: 9.07

Prompt line: Same question for CC[C@H](C)[C@@H]1NC(=O)[C@H](C(C)C)N(C)C(=O)C[C@@H](C)NC(=O)[C@H](CC(C)C)N(C)C(=O)C(C)(C)NC(=O)[C@H](CC(C)C)N(C)C(=O)[C@H](CCc2ccc(C(F)(F)F)c(Cl)c2)NC(=O)CN(C)C(=O)[C@H](Cc2ccc(Cl)cc2)N(C)C(=O)CN(C)C(=O)CN(C)C1=O [Compound 740] (cyclo([Aib][NMeL][d(β3hA)][NMeV]I[Sar][Sar][NMePhe(4-Cl)][Sar][hPhe(3-Cl-4-CF3)][NMeL])) please.
Response line: 7.96

Prompt line: Input CCCOC[C@H]1C(=O)N(C)CC(=O)N[C@@H](CCc2ccc(C(F)(F)F)c(F)c2)C(=O)N2CCC[C@H]2C(=O)NC2(CCCC2)C(=O)N(C)[C@@H](C2CCCC2)C(=O)N(C)[C@H](C(=O)N(C)C)CSCC(=O)N(C)[C@@H](CC(C)C)C(=O)N[C@@H]([C@@H](C)CC)C(=O)N(C)[C@@H](C)C(=O)N2CC[C@H]2C(=O)N1C [Compound 2174] ({CH2CO}-[NMeL]I[NMeA][Aze][NMeS](Propyl)[Sar][hPhe(3-F,4-CF3)]P[Ac5c][NMeGly(cPent)][NMeC]-NMe2; thioether N-11)
Response line: 6.06

Prompt line: Cool, now CC[C@H](C)[C@@H]1NC(=O)[C@H](CC(C)C)N(C)C(=O)C[C@@H](C)N(C)C(=O)[C@H](CC(C)C)NC(=O)C(C)(C)N(C)C(=O)[C@H](CC(C)C)NC(=O)[C@H](CCc2ccc(C(F)(F)F)cc2)NC(=O)CN(C)C(=O)[C@H](CC2CCCCC2)N(C)C(=O)CN(C)C(=O)CN(C)C1=O [Compound 262] (cyclo(I[Sar][Sar][NMeCha][Sar][hPhe(4-CF3)]L[NMeAib]L[NMedβ3hAla][NMeL]))
Response line: 7.37

Prompt line: Same for CC[C@H](C)[C@@H]1NC(=O)[C@H](C)N(C)C(=O)C[C@@H](C)N(C)C(=O)[C@H](CC(C)C)NC(=O)C(C)(C)N(C)C(=O)[C@H](CC(C)C)NC(=O)[C@H](CCc2ccc(C(F)(F)F)c(Cl)c2)NC(=O)CN(C)C(=O)[C@H](CC2CCCCC2)N(C)C(=O)CN(C)C(=O)CN(C)C1=O [Compound 1380] (cyclo(I[Sar][Sar][NMeCha][Sar][hPhe(3-Cl-4-CF3)]L[NMeAib]L[NMedβ3hAla][NMeA]))
Response line: 7.80

Prompt line: CC(C)C[C@H]1C(=O)N[C@@H](COC2CC2)C(=O)N(C)[C@@H](C)C(=O)N2CC[C@H]2C(=O)N(C)[C@@H](CC2CCCCC2)C(=O)N(C)CC(=O)N[C@@H](CCc2ccc(C(F)(F)F)c(Cl)c2)C(=O)N2CCC[C@H]2C(=O)NC2(CCCC2)C(=O)N(C)[C@@H](C(C)C)C(=O)N(C)[C@H](C(=O)N2CCCCC2)CC(=O)N1C [Compound 1811] ([NMeL]S(Cyclopropyl)[NMeA][Aze][NMeCha][Sar][hPhe(3-Cl-4-CF3)]P[Ac5c][NMeV][NMeD]-Piperidide; lactam N-11) , same question.
Response line: 7.25

Prompt line: Also CC[C@H](C)[C@@H]1NC(=O)[C@H](CC(C)C)N(C)C(=O)C[C@@H](C(=O)N2CCCCC2)N(C)C(=O)[C@H](C2CCCC2)N(C)C(=O)C2(CCCC2)NC(=O)[C@@H]2CCCN2C(=O)[C@H](CCc2ccc(OC(F)(F)F)c(F)c2)NC(=O)CN(C)C(=O)[C@H](CC2CCCCC2)N(C)C(=O)[C@@H]2CCN2C(=O)[C@H](C)N(C)C1=O [Compound 2067] ([NMeL]I[NMeA][Aze][NMeCha][Sar][X21]P[Ac5c][NMeGly(cPent)][NMeD]-Piperidide; lactam N-11 (inferred); C-terminus assumed) , if possible.
Response line: 9.08

Prompt line: And what about the compound CC[C@H](C)[C@@H]1NC(=O)[C@H](C)N(C)C(=O)C[C@@H](C)NC(=O)[C@H](C2CCCC2)N(C)C(=O)C2(CCCC2)NC(=O)[C@@H]2CCCN2C(=O)[C@H](CCc2ccc(C(F)(F)F)c(Cl)c2)NC(=O)[C@@H](C)N(C)C(=O)[C@H](Cc2ccc(Cl)cc2)N(C)C(=O)[C@@H]2CCN2C(=O)[C@H](C)N(C)C1=O [Compound 720] (cyclo([Ac5c][NMeGly(cPent)][d(β3hA)][NMeA]I[NMeA][Aze][NMePhe(4-Cl)][dNMeA][hPhe(3-Cl-4-CF3)]P)) ?
Response line: 7.41

Prompt line: Similarly, CC[C@H](C)[C@@H]1NC(=O)[C@H](C)N(C)C(=O)C[C@@H](C)NC(=O)[C@H](CC(C)C)N(C)C(=O)[C@H](Cc2ccccc2)N(C)C(=O)[C@H](CC(C)C)NC(=O)[C@H](CCc2ccc(F)cc2F)NC(=O)CN(C)C(=O)[C@H](Cc2ccc(Cl)cc2)N(C)C(=O)CN(C)C(=O)CN(C)C1=O [Compound 2089] (cyclo(I[Sar][Sar][NMePhe(4-Cl)][Sar][X99]L[NMeF][NMeL][d(β3hA)][NMeA])) ?
Response line: 6.52
